meta.source: patent US4425435A

- Tested on: cholesterol oxidase
- Experimental Protocol: Substrate specificity: hydrogen peroxide decomposed with peroxidase, chromogen colour
- Type: biochemical, Basidiomycetes
- Run Conditions: hydrogen peroxide liberated from dehydrogenation of the 3β-position
Property: enzyme acts on the sterol (substrate specificity)

{"Molecule": "CC[C@H](CC[C@@H](C)[C@H]1CC[C@H]2[C@@H]3CC=C4C[C@@H](O)CC[C@]4(C)[C@H]3CC[C@]12C)C(C)C", "Measurement": "act on"}
{"Molecule": "CC[C@H](/C=C/[C@@H](C)[C@H]1CC[C@H]2[C@@H]3CC=C4C[C@@H](O)CC[C@]4(C)[C@H]3CC[C@]12C)C(C)C", "Measurement": "act on"}
{"Molecule": "C[C@]12CC[C@H](O)CC1=CC[C@@H]1[C@@H]2CC[C@]2(C)C(=O)CC[C@@H]12 [dehydroepiandrosterone]", "Measurement": "act on"}

---

- Tested on: cholesterol oxidase
- Experimental Protocol: Effect of inhibitors etc. on activity of the present enzymes
- Type: biochemical, Basidiomycetes
Property: inhibition of the enzyme activity

Consider the worked cases shown below.
{"Compound": "Oc1cccc2cccnc12 [β-hydroxyquinoline]", "Measurement": "not inhibitory"}
{"Compound": "[Ba+2]", "Measurement": "do not inhibit"}
{"Compound": "O=C(O)CN(CCN(CC(=O)O)CC(=O)O)CC(=O)O", "Measurement": "not inhibitory"}
{"Compound": "[Ni+2]", "Measurement": "do not inhibit"}
{"Compound": "[Hg+2]", "Measurement": "markedly inhibited"}
{"Compound": "[Cu+2]", "Measurement": "markedly inhibited"}

Measured inhibition of the enzyme activity (cholesterol oxidase), entry [Co+2] : do not inhibit

Lab note: compound [Ca+2] tested on cholesterol oxidase; recorded inhibition of the enzyme activity was do not inhibit

Reported inhibition of the enzyme activity (cholesterol oxidase) for entry [Mg+2] is do not inhibit

Entry c1ccc(-c2ccccn2)nc1 under cholesterol oxidase had inhibition of the enzyme activity of not inhibitory

Form: item [Mn+2] ; test system cholesterol oxidase; inhibition of the enzyme activity: do not inhibit

Note to self: inhibition of the enzyme activity of [Fe+2] with cholesterol oxidase was do not inhibit

Observed inhibition of the enzyme activity, cholesterol oxidase, c1cnc2c(c1)ccc1cccnc12 : not inhibitory

---

- System: cholesterol oxidase
- Experimental Protocol: Substrate specificity: hydrogen peroxide decomposed with peroxidase, chromogen colour
- Format: biochemical, Basidiomycetes
- Run Conditions: hydrogen peroxide liberated from dehydrogenation of the 3β-position
Property: enzyme acts on the sterol (substrate specificity)

Sample answers from the record:
{"Compound": "CC(C)CCC[C@@H](C)[C@H]1CC[C@H]2[C@@H]3CC[C@H]4C[C@@H](O)CC[C@]4(C)[C@H]3CC[C@]12C [β-cholestanol]", "Measurement": "act on"}
{"Compound": "CC(C)CCC[C@@H](C)[C@H]1CC[C@H]2[C@@H]3CC=C4C[C@@H](O)CC[C@]4(C)[C@H]3CC[C@]12C [cholesterol]", "Measurement": "act on"}
{"Compound": "C[C@@H](O)[C@H]1CC[C@H]2[C@@H]3CC[C@H]4C[C@@H](O)CC[C@]4(C)[C@H]3CC[C@]12C [5α-pregnan-3β,20β-diol]", "Measurement": "act on"}
{"Compound": "CC(C)[C@@H](C)/C=C/[C@@H](C)[C@H]1CC[C@H]2C3=CC=C4C[C@@H](O)CC[C@]4(C)[C@H]3CC[C@]12C [ergosterol]", "Measurement": "act on"}
{"Compound": "CC(C)[C@H](C)CC[C@@H](C)[C@H]1CC[C@H]2[C@@H]3CC=C4C[C@@H](O)CC[C@]4(C)[C@H]3CC[C@]12C [campesterol]", "Measurement": "act on"}

Moving on to the next compound.
// assay cholesterol oxidase, entry CC(=O)[C@H]1CC[C@H]2[C@@H]3CC=C4C[C@@H](O)CC[C@]4(C)[C@H]3CC[C@]12C [pregnenolone] , enzyme acts on the sterol (substrate specificity) value = act on
